tested on: P. falciparum multidrug-resistant strains; assay: SYBR Green growth assay, summary over panel of resistant strains; assay type: cell-based; details: Plasmodium falciparum, TM90C6B, read-out: submicromolar activity
experimental.endpoint: IC50

Ask: Fill in: IC50 of CCCCCCCCCCCc1cc(=O)c2ccccc2[nH]1 is ___
Reply: 290 to 790 nM
